Cited source for all entries: paper PMC5540273

Assign %Inh to each entry below.
# Tested on: DYRK1B
# REPORTED_CONDITIONS: concentration: 1 μM, replicates: in singlicate; n = 1;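 further: KINOMEscan kinase panel screen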
Answers are plain numbers, in %.

# example entries with known answers
SMILES_STR	%Inh / %
O=C(Nc1n[nH]c2nc(-c3ccccc3)ccc12)C1CC1	0
Fc1cc(Cl)ccc1Nc1ccnc2cc(-c3ccc(CN4CCSCC4)o3)ccc12	0

Proceeding to the next compound to report its %Inh.
(Q) Item under review: COc1cccc(C2=C(Nc3cccc(O)c3)C(=O)NC2=O)c1 . Reported %Inh?
(A) 24

====

# System: TRKA
# Construct: gene NTRK1
# REPORTED_CONDITIONS: concentration: 1 μM, replicates: in singlicate; n = 1
ASSAY_ENDPOINT: %Inh
Mention the unit after the number when you answer.

# example entries with known answers
SMILES_STR	%Inh
COc1ccc(NC(=O)c2ccoc2)cc1-c1ccc(C(=O)NCC2CC2)cc1	15%
Cl.N#CCc1ccc(Nc2nccc(Nc3ccc(Oc4ccccc4)cc3)n2)cc1	0%
COc1ccc(C2=C(Nc3cccc(O)c3)C(=O)NC2=O)cc1	0%

I would be grateful if you could provide %Inh for each of the following entries.
1. CCNC(=O)/C=C/c1n[nH]c2cc(Sc3ccccc3C(=O)NC)ccc12
2. CC(C)c1nc(-c2ccc(F)c(NS(=O)(=O)c3c(F)cccc3F)c2)c(-c2ccnc(Nc3ccc(N4CCOCC4)nc3)n2)s1
3. COc1cccc2c(-c3ccncc3)c(-c3ccc(F)cc3)nn12

(A)
34%
98%
17%

I would be grateful if you could provide %Inh for each of the following entries.
1. O=C(Nc1n[nH]c2nc(-c3ccccc3)ccc12)C1CC1
2. CN1CCN(Cc2ccc(NC(=O)Nc3ccc(N(C)c4ccnc(Nc5ccc(CS(C)(=O)=O)cc5)n4)cc3)cc2)CC1.Cl
3. O=C(O)C(F)(F)F.O=c1[nH]ccc2nc(N[C@@H]3CCNC3)nc(Nc3cc(Cl)cc(Cl)c3)c12

(A)
1%
91.4%
100%

====

# Tested on: MAP3K1
# REPORTED_CONDITIONS: concentration: 1 μM, replicates: in singlicate; n = 1
Assign %Inh to each entry below.
Mention the unit after the number when you answer.

# example entries with known answers
COMPOUND	SUBJECT_OF_TEST	%Inh
CCNc1nccc(-c2c(-c3ccc(F)cc3)ncn2C2CCN(C)CC2)n1	MAP3K1	0%
COc1cccc2c(-c3ccncc3)c(-c3ccc(F)cc3)nn12	MAP3K1	5%
Cc1cccc(Nc2nc(NCCN)ncc2C(N)=O)c1	MAP3K1	4%
Nc1ncc(-c2ccc3nccc(-c4ccncc4)c3c2)cc1S(=O)(=O)N1CCCCC1	MAP3K1	9%
CN(c1ccc(NC(=O)Nc2cccc(Cl)c2)cc1)c1ccnc(N)n1.Cl	MAP3K1	0%

I would be grateful if you could provide %Inh for each of the following entries.
1. NCCC(NC(=O)c1cc(Br)c(-c2ccnc3[nH]ccc23)s1)c1ccccc1.O=C(O)C(F)(F)F.O=C(O)C(F)(F)F (centres unmarked)
2. O=C(Nc1n[nH]c2nc(-c3ccccc3O)ccc12)C1CC1
3. O=C(Nc1n[nH]c2nc(-c3ccccc3)ccc12)C1CC1
4. Cn1cc(-c2cnc(N)c3c(-c4ccc5c(c4)CCN5C(=O)Cc4ccccc4)csc23)cn1
5. CCOc1nccc(-c2c(-c3ccc(F)cc3)ncn2C2CCNCC2)n1
6. COc1cc(Nc2nccc(N3CCC(NC(=O)Nc4ccc5c(c4)OCO5)C3)n2)cc(OC)c1OC (centres unmarked)
7. CN(c1ccc(F)c(NC(=O)c2cccc(OC(C)(C)C#N)c2Cl)c1)c1ccc2nc(NC(=O)C3CC3)sc2n1
8. N#Cc1cnc2cc(-c3cnc(CNCCN4CCOCC4)s3)ccc2c1Nc1ccc(Oc2ccccc2)cc1

(A)
["16%", "0%", "17%", "4%", "42%", "8%", "0%", "19%"]

(Q) %Inh of COc1cc(Nc2ccnc3cc(-c4ccncc4)ccc23)cc(OC)c1OC.Cl on MAP3K1?
(A) 8%
